Tested on: EKVX NSCLC
Test: NCI-60 one-dose screen, 48 h (100 = growth as untreated, 0 = no growth, -100 = all killed)
Conditions: 10 µM unless noted
This is part of a sample that, as a whole, favours compounds with a hit. Of some 83,000 tested, about 20% had one in any assay. Active and inactive are the calls of the source. Rule for the calls: active = growth percent below 10; inactive = the rest.
experimental endpoint: growth

Field: example entries. Status: answers known.
[[record]]
smiles_record = "COc1ccc(C#Cc2ccc(=O)oc2-c2cc(OC)c(OC)c(OC)c2)cc1O"
meas_value = "79.8% (inactive)"

[[record]]
smiles_record = "COc1ccc(C(=O)/C=C/c2ccc(N3CCCCC3)cc2)cc1OC"
meas_value = "92.8% (inactive)"

[[record]]
smiles_record = "C=C1C(=O)O[C@H]2[C@H]1CC/C(COC(=O)CSCSCC(=O)OC/C1=C/CC[C@@]3(C)O[C@H]3[C@H]3OC(=O)C(=C)[C@@H]3CC1)=C\\CC[C@@]1(C)O[C@@H]21"
meas_value = "15.9% (inactive)"


Incoming: Query for EKVX NSCLC: what growth does the record show for `CN(C)c1ccc(/C=C(\C#N)c2cc3ccccc3[nH]2)cc1` ?
Outgoing: 42.2% (inactive)

Incoming: # query: growth | item `O=C1NC(=O)/C(=C/c2c(-c3ccccc3)nc3sc(COc4ccccc4)nn23)S1` | system: EKVX NSCLC
Outgoing: 91.9% (inactive)

Incoming: Lab note: need growth for `O=C(Nc1ncc(Cc2ccccc2)s1)c1ccc2c(c1)OCCCO2` on EKVX NSCLC, anyone have it?
Outgoing: 36.7% (inactive)

Incoming: Recorded growth for `CC1(C)CC[C@]2(C(=O)N[C@H](CO)Cc3ccccc3)CC[C@]3(C)C(=CC[C@@H]4[C@@]5(C)CCCNC(C)(C)[C@@H]5CC[C@]43C)[C@@H]2C1` with EKVX NSCLC, please?
Outgoing: 90.9% (inactive)

Incoming: Lab note: need growth with EKVX NSCLC for entry `c1nc2ccc(-c3cc4ccc5[nH]ncc5c4c4c3CCCC4)cc2[nH]1` , please look it up.
Outgoing: 93% (inactive)

Incoming: Please provide the recorded growth for `O=C1Nc2ccccc2C1(c1c[nH]c2ccccc12)c1c[nH]c2ccccc12` , tested on EKVX NSCLC.
Outgoing: 23.3% (inactive)

---

Test system: EKVX NSCLC
Assay: NCI-60 one-dose screen, 48 h
Conditions: 10 µM unless noted
The panel holds about 83,000 compounds, 20% with a hit somewhere; the sample as a whole holds those more often. Calls of active or inactive are those of the source. Rule for the calls: active = growth percent below 10; inactive = the rest.
Output constraint: value belongs to true (1) = active, false (0) = inactive

Examples with answers:
[[record]]
smiles_record = "C#Cc1cccc(Nc2nc(C)nc3cc(NC(=O)CCl)ccc23)c1"
class_name = "true (1)"

[[record]]
smiles_record = "S=c1[nH]c(=S)c2c(-c3ccccc3)c(-c3ccccc3)oc2[nH]1"
class_name = "false (0)"


Incoming: What outcome does the record of this test show for `CCOC(=O)C(=CNc1cnc(Nc2ccc(N3CCOCC3)cc2)nc1Oc1ccc(OC)cc1)C(=O)OCC` ?
Outgoing: false (0)

Incoming: Write down the call the test reported for this molecule. Item: `O=C(Nc1ccc(Br)cc1)C1=NCCCCN1`
Outgoing: false (0)

---

Tested on: U251 CNS
Assay: NCI-60 one-dose screen, 48 h
Settings: 10 µM unless noted
The panel holds about 83,000 compounds, 20% with a hit somewhere; the sample as a whole holds those more often. Active and inactive are the calls of the source. How the source made its calls: active means growth percent below 10; inactive means the rest.
API: response.call in label 1 for active, label 0 for inactive

As a guide, the following entries are already answered.
[[record]]
compound = "C#CCNC(=O)[C@]1(C)CCC[C@@]2(C)[C@H]1CC=C1C=C(C(C)C)CC[C@@H]12"
class_name = "label 0"

[[record]]
compound = "O=C(O)[C@@H](Cc1ccc2ccccc2c1)NC(=O)n1c2ccccc2c2ccccc21"
class_name = "label 0"


Incoming: I'd appreciate the recorded outcome for COc1ccc(CCN(CC(=O)N(CC(N)=O)C2CCC[C@@H]2OCc2ccccc2)C(=O)CN(C(=O)CN(CCc2ccc(Cl)cc2)C(=O)CN(C(=O)CN(C)Cc2ccccc2F)[C@H](C)C2CCCCC2)[C@H](C)C2CCCCC2)cc1OC (some centres undefined) from this test.
Outgoing: label 0

Incoming: Please let me know the test result on file for `C/C=C(/C)n1cnc2c(Nc3ccccn3)nc(Cl)nc21` .
Outgoing: label 0

Incoming: // param item: Nc1ncnc2c1N=C(c1ccc3c(c1)OCO3)CC(c1cccc(Nc3ccnc4cc(C(F)(F)F)ccc34)c1)N2 (centres undefined) ; yields the recorded call
Outgoing: label 0

Incoming: What call does the record list for `NS(=O)(=O)c1ccc(-c2cc(-c3nnc(SCC(=O)Nc4ccc(C(=O)/C=C/c5ccc(Cl)cc5)cc4)n3-c3ccccc3)c3ccccc3n2)cc1` ?
Outgoing: label 0

Incoming: What did the test return for `O=C(O)COc1ccc(Cl)c(Cl)c1` ?
Outgoing: label 0

Incoming: Given `CCOC(=O)C#Cc1c(C(=O)OCC)nnn1Cc1ccc(C(F)(F)F)cc1` , state the outcome it received in this test.
Outgoing: label 0

Incoming: Hi, sorry to bother you, what did the test record for `CO[C@H]1CC(=O)n2c3ccccc3c3c4c(c5c6ccccc6n1c5c32)C(=O)NC4=O` ?
Outgoing: label 0

Incoming: Each compound tested received a call. Report the one for `COc1ccc(C(=O)Cn2c(C(=O)c3ccc(Cl)cc3)nc3ccccc32)cc1` .
Outgoing: label 0

Incoming: For this compound, state the assay outcome: `O=C(Nc1ccccc1O)c1ccc(CNC(=O)c2ccsc2Nc2ccnc(C(F)(F)F)c2)cc1`
Outgoing: label 1

Incoming: Kindly provide the recorded test outcome for the following compound: `O=C1/C(=C/c2ccc(O)c(O)c2)COc2ccc(-c3ccccc3)cc21`
Outgoing: label 0

Incoming: Please let me know the test result on file for `Cc1cccc[n+]1C1c2ccccc2-c2ccccc21` .
Outgoing: label 0

Incoming: So what was the verdict on `Cc1ccc(C(=O)c2ccc(CC(=O)NN3C(=O)c4ccccc4C3=O)n2C)cc1` in this test?
Outgoing: label 0

Incoming: Any idea what this test logged for `COc1ccc(-c2cc(-c3ccccc3)nc(N3CCN(CCNc4ccnc5cc(Cl)ccc45)CC3)n2)cc1` ?
Outgoing: label 1

Incoming: Outcome logged for `O=C1/C=C/[C@@H](O)[C@@H]2C[C@@H](O)C[C@H]2/C=C/CCC[C@@H](O)CCO1` in this assay:
Outgoing: label 0

Incoming: Which outcome did this test record for the compound `C=C(c1ccc(OC)c(/C=C/C(=O)c2ccc3c(c2)OCO3)c1)c1cc(OC)c(OC)c(OC)c1` ?
Outgoing: label 0

Incoming: Short answer needed: outcome of this test for `Cc1ccc(-c2nc(-c3cn(C)c4ncccc34)cs2)cc1` ?
Outgoing: label 1

Incoming: Please let me know the test result on file for `NC(=O)c1c(NC(=O)c2cccs2)sc2c1CCC(=O)C2` .
Outgoing: label 0

---

Test system: SW-620 colon
Assay: NCI-60 one-dose screen, 48 h (100 = growth as untreated, 0 = no growth, -100 = all killed)
Details: 10 µM unless noted
The panel holds about 83,000 compounds, 20% with a hit somewhere; the sample as a whole holds those more often.
experimental endpoint: growth (%)
Respond with the bare value in %.

[[record]]
smiles_record = "CC(=O)Oc1ccc(OC(C)=O)c2ccccc12"
readout_unit = "%"
meas_value = 109

[[record]]
smiles_record = "CC1(C)CC[C@]2(CO)CC[C@]3(C)[C@H](CC[C@@H]4[C@@]5(C)CCCNC(C)(C)[C@@H]5CC[C@]43C)[C@H]2[C@H]1O"
readout_unit = "%"
meas_value = 54.2

[[record]]
smiles_record = "O=C1/C(=C\\c2cccc3nccnc23)SC(=S)N1CCc1ccc(O)cc1"
readout_unit = "%"
meas_value = 101

[[record]]
smiles_record = "CCCCNC(=O)Oc1ccc(/C(=C(/C)Cc2ccc(OC)cc2)c2ccc(OCCN3CCCCC3)cc2)cc1"
readout_unit = "%"
meas_value = 77.4


Now for the molecule whose growth we want.
Incoming: Recorded growth for `CN1CCN(C(=S)SCCCCOc2cc(=O)oc3ccccc23)CC1` with SW-620 colon, please?
Outgoing: 100

---

System: MDA-MB-435 melanoma
Assay: NCI-60 one-dose screen, 48 h
Conditions: 10 µM unless noted
This is part of a sample that, as a whole, favours compounds with a hit. Of some 83,000 tested, about 20% had one in any assay. Calls of active or inactive are those of the source. How the source made its calls: active means growth percent below 10; inactive means the rest.
Could you please pick one outcome from this set? active, inactive

Answered examples (2):
[[record]]
compound = "Cc1nc2cc(O)c(O)cc2cc1Oc1ccc(NC(=O)Nc2ccc(Cl)c(Cl)c2)cc1"
class_name = "inactive"

[[record]]
compound = "O=C(Cc1cccc(OC(F)(F)F)c1)Nc1ccc(CCCCc2nnc(NC(=O)Cc3ccccn3)s2)nn1"
class_name = "inactive"


Incoming: Dear all, I need the recorded test outcome for `CC(=C(c1ccc(OCCN2CCCCC2)cc1)c1ccc(OCCN2CCCCC2)cc1)c1ccc(Cl)cc1` , thank you.
Outgoing: active

Incoming: I would be grateful if you could indicate the recorded call for `CC1(C)[C@@H](O[C@@H]2OC[C@@H](O[C@@H]3O[C@H](CO)[C@@H](O)[C@H](O)[C@H]3O[C@@H]3OC[C@@H](O)[C@H](O)[C@H]3O)[C@H](O)[C@H]2O[C@@H]2O[C@H](CO)[C@@H](O)[C@H](O)[C@H]2O)CC[C@]2(C)[C@H]3CC[C@]45OC[C@@]6(CC[C@](C)(C=O)C[C@H]64)[C@H](O)C[C@@]5(C)[C@]3(C)CC[C@@H]12` .
Outgoing: active

Incoming: # lookup: test call for `CSc1nc(C)c([N+](=O)[O-])c(N)n1`
Outgoing: inactive

Incoming: Recorded call for `CCNc1nc(O)c(/C=C2\C=Nc3ncccc32)s1` ?
Outgoing: active

Incoming: Each compound tested received a call. Report the one for `CNCc1cccc2c1OCCOCCOCCNS(=O)(=O)c1ccc(cc1)-c1cnc(N)c(n1)C(=O)N2` .
Outgoing: inactive

Incoming: Which outcome was assigned to `COc1ccc(/C=C/c2c(C(=O)/C=C/c3ccccc3)c(C)nc3ccccc23)cc1` in this test?
Outgoing: active

Incoming: Record request — test call for `CCN1CCN(C(=O)[C@]23CC[C@@H](C)[C@H](C)[C@@H]2C2=CC[C@@H]4[C@@]5(C)C/C(=C/c6cccnc6)C(=O)C(C)(C)[C@@H]5CC[C@@]4(C)[C@]2(C)CC3)CC1`
Outgoing: inactive

Incoming: # fetch the recorded call for Cc1ccc(C2CC(c3nc(-c4ccc(Cl)cc4)oc3C)=NN2C(=O)c2ccncc2)cc1 (centres undefined) here
Outgoing: inactive

Incoming: Outcome? `COc1cc(OC)cc(-c2ccc(-c3ccc(C(=N)N)o3)o2)c1`
Outgoing: active

Incoming: Could you please tell me the result logged for `C[C@H](C(=O)N(CCc1ccc(Cl)c(Cl)c1)Cc1cncs1)[C@@H]1CC[C@H](C[C@H](C)n2cc(CN3CCC(c4ccc(Cl)cc4)CC3)nn2)O1` in this assay?
Outgoing: inactive

Incoming: Can you look up the reported call for N#Cc1ccc(O)c(C2=NCC(Cc3ccccc3)O2)c1 (centres undefined) for me?
Outgoing: inactive

Incoming: Outcome? `COc1ccc(Cn2cc3c(c2-c2ccccc2)CCc2cnoc2-3)cc1`
Outgoing: active
